# Tested on: Avena fatua
# assay_details: Post-emergence herbicidal effect
# Type: in vivo
# test_context: one-leaf stage, 320 g/ha, assessed visually after about 3 weeks, 100% = plants have died
outcome_measure: Post-emergence effectiveness AVEFA (herbicidal action in percent) (%)

| compound | readout_number |
| --- | --- |
| CCc1cc(Cl)cc(OC)c1C1=C(OC(=O)C(C)(C)C)C2=CCOCCN2C1=O | 100 |
| CCc1cccc(C)c1C1=C(O)C2CCOCCN2C1=O (centres unmarked) | 100 |
| CCc1cc(C)cc(C)c1C1=C(OC(=O)C(C)(C)C)C2CCOCCN2C1=O (centres unmarked) | 100 |
| CCc1cc(C)cc(CC)c1C1=C(O)C2CCOCCN2C1=O (centres unmarked) | 100 |
| CCc1cc(C)cc(C)c1C1=C(OC(C)=O)C2=CCOCCN2C1=O | 80 |
| CCOC(=O)OC1=C(c2c(CC)cc(Cl)cc2OC)C(=O)N2CCOCCC12 (centres unmarked) | 100 |
| CCOC(=O)OC1=C(c2c(C)cc(C)cc2CC)C(=O)N2CCOCCC12 (centres unmarked) | 100 |
| Cc1cc(C)c(C2=C(OC(=O)C(C)(C)C)C3CCOCCN3C2=O)c(C)c1 (centres unmarked) | 100 |
| CCOC(=O)OC1=C(c2c(C)cc(C)cc2C)C(=O)N2CCOCCC12 (centres unmarked) | 100 |
| CCc1cccc(C)c1C1=C(OC(C)=O)C2CCOCCN2C1=O (centres unmarked) | 100 |
| CCc1cc(C)cc(C)c1C1=C(OC(C)=O)C2CCOCCN2C1=O (centres unmarked) | 100 |
| Cc1cc(C)c(C2=C(O)C3CCOCCN3C2=O)c(C)c1 (centres unmarked) | 100 |
| Cc1cc(C)c(C2=C(O)C3=CCOCCN3C2=O)c(C)c1 | 80 |
| CCc1cc(C)cc(C)c1C1=C(O)C2=CCOCCN2C1=O | 100 |
| CCOC(=O)OC1=C(c2c(C)cccc2CC)C(=O)N2CCOCCC12 (centres unmarked) | 90 |
| CCc1cc(C)cc(CC)c1C1=C(OC(C)=O)C2CCOCCN2C1=O (centres unmarked) | 100 |
| CCc1cc(Cl)cc(OC)c1C1=C(OC(=O)C(C)(C)C)C2CCOCCN2C1=O (centres unmarked) | 100 |
| CCc1cccc(C)c1C1=C(OC(=O)C(C)(C)C)C2CCOCCN2C1=O (centres unmarked) | 100 |
| CCc1cc(C)cc(C)c1C1=C(O)C2CCOCCN2C1=O (centres unmarked) | 100 |
| CCc1cc(C)cc(CC)c1C1=C(OC(=O)C(C)(C)C)C2CCOCCN2C1=O (centres unmarked) | 100 |

====

# System: Echinochloa crus-galli
# assay_details: Post-emergence herbicidal effect
# Format: in vivo
# test_context: one-leaf stage, 320 g/ha, assessed visually after about 3 weeks, 100% = plants have died
Listed next: entries and their corresponding Post-emergence effectiveness ECHCG (herbicidal action in percent).
outcome_measure: Post-emergence effectiveness ECHCG (herbicidal action in percent) (%)

| molecule | readout_number |
| --- | --- |
| CCOC(=O)OC1=C(c2c(CC)cc(C)cc2CC)C(=O)N2CCOCC=C12 | 80 |
| CCOC(=O)OC1=C(c2c(CC)cc(Cl)cc2OC)C(=O)N2CCOCC=C12 | 90 |
| CCOC(=O)OC1=C(c2c(CC)cc(C)cc2CC)C(=O)N2CCOCCC12 (stereo not drawn) | 100 |
| Cc1cc(C)c(C2=C(OC(=O)C(C)(C)C)C3CCOCCN3C2=O)c(C)c1 (stereo not drawn) | 100 |
| Cc1cc(C)c(C2=C(O)C3=CCOCCN3C2=O)c(C)c1 | 90 |
| CCc1cc(C)cc(CC)c1C1=C(O)C2=CCOCCN2C1=O | 100 |
| CCc1cc(C)cc(C)c1C1=C(OC(=O)C(C)(C)C)C2CCOCCN2C1=O (stereo not drawn) | 100 |
| CCc1cc(Cl)cc(OC)c1C1=C(OC(=O)C(C)(C)C)C2=CCOCCN2C1=O | 100 |
| CCOC(=O)OC1=C(c2c(C)cc(Br)cc2C)C(=O)N2CCOCC=C12 | 80 |
| CCOC(=O)OC1=C(c2c(C)cc(C)cc2CC)C(=O)N2CCOCC=C12 | 90 |
| CCc1cc(C)cc(CC)c1C1=C(OC(=O)C(C)(C)C)C2=CCOCCN2C1=O | 90 |
| CCc1cc(C)cc(C)c1C1=C(OC(C)=O)C2CCOCCN2C1=O (stereo not drawn) | 100 |
| CCOC(=O)OC1=C(c2c(C)cc(C)cc2CC)C(=O)N2CCOCCC12 (stereo not drawn) | 100 |
| CCc1cc(Cl)cc(OC)c1C1=C(OC(=O)OC)C2CCOCCN2C1=O (stereo not drawn) | 100 |
| CCOC(=O)OC1=C(c2c(C)cc(C)cc2C)C(=O)N2CCOCCC12 (stereo not drawn) | 100 |
| CCOC(=O)OC1=C(c2c(CC)cc(C)cc2CC)C(=O)N2CCCOCC12 (stereo not drawn) | 100 |
| CCc1cccc(C)c1C1=C(O)C2CCOCCN2C1=O (stereo not drawn) | 100 |
| CCc1cc(C)cc(C)c1C1=C(OC(=O)OC)C2=CCOCCN2C1=O | 90 |
| CCc1cc(Cl)cc(OC)c1C1=C(O)C2=CCOCCN2C1=O | 100 |
| CC(=O)OC1=C(c2c(C)cc(C)cc2C)C(=O)N2CCOCCC12 (stereo not drawn) | 100 |
| CCc1cc(C)cc(C)c1C1=C(OC(C)=O)C2=CCOCCN2C1=O | 90 |
| CCOC(=O)OC1=C(c2c(C)cccc2CC)C(=O)N2CCOCCC12 (stereo not drawn) | 100 |
| CCc1cc(C)cc(C)c1C1=C(OC(=O)C(C)(C)C)C2=CCOCCN2C1=O | 90 |
| Cc1cc(C)c(C2=C(O)C3CCOCCN3C2=O)c(C)c1 (stereo not drawn) | 100 |
| CCc1cc(Cl)cc(OC)c1C1=C(OC(=O)C(C)(C)C)C2CCOCCN2C1=O (stereo not drawn) | 100 |
| Cc1cc(C)c(C2=C(OC(=O)C(C)(C)C)C3COCCCN3C2=O)c(C)c1 (stereo not drawn) | 90 |
| CCc1cccc(C)c1C1=C(OC(C)=O)C2CCOCCN2C1=O (stereo not drawn) | 100 |
